Catalogue of molecules with associated pIC50
# measurement.description: MTT cytotoxicity (PDT and dark), RAW264.7 normal cell line
# Assay type: cell-based, Murine
# measurement.context: mouse, RAW264.7 cells (normal macrophage), RAW264.7 normal macrophage; 660 nm laser 0.5 J/cm^2, MTT after 24 h; read-out: IC50, PDT cytotoxicity
pIC50: −log10 of the molar value.
observable: pIC50

molecular.string: C=Cc1c(C)c2cc3nc(c(CC(=O)O)c4[nH]c(cc5nc(cc1[nH]2)C(C)=C5CC)c(C)c4C(=O)O)[C@@H](CCC(=O)O)[C@@H]3C
value: 4.34
//
molecular.string: C=Cc1c(C)c2cc3nc(c(CC(=O)O)c4[nH]c(cc5nc(cc1[nH]2)C(C(=O)OCC)=C5CC)c(C)c4C(=O)O)[C@@H](CCC(=O)O)[C@@H]3C
value: 4.26

====

# Test system: AsPC-1
# measurement.description: MTT cytotoxicity (PDT and dark), AsPC-1
# Type: cell-based, Human
# measurement.context: Homo sapiens, ASPC1, light or radiation study, 3 h exposure, 660 nm laser 0.5 J/cm^2, MTT after 24 h

molecular.string: C=Cc1c(C)c2cc3nc(c(CC(=O)O)c4[nH]c(cc5nc(cc1[nH]2)C(C)=C5CC)c(C)c4C(=O)O)[C@@H](CCC(=O)O)[C@@H]3C
system.under.test: AsPC-1
quantity.unit: µM
IC50: 30.4

molecular.string: C=Cc1c(C)c2cc3nc(c(CC(=O)O)c4[nH]c(cc5nc(cc1[nH]2)C(C(=O)OCC)=C5CC)c(C)c4C(=O)O)[C@@H](CCC(=O)O)[C@@H]3C
system.under.test: AsPC-1
quantity.unit: µM
IC50: 49.1

====

# measurement.description: MTT cytotoxicity (PDT and dark), MIA PaCa-2
# Assay type: cell-based, Human
# measurement.context: human, MIA PaCa-2 cells, no illumination, MTT after 24 h
pIC50: −log10 of the molar value.
observable: pIC50

compound: C=Cc1c(C)c2cc3nc(c(CC(=O)O)c4[nH]c(cc5nc(cc1[nH]2)C(C)=C5CC)c(C)c4C(=O)O)[C@@H](CCC(=O)O)[C@@H]3C [chlorin e6]
value: 3.37
//
compound: C=Cc1c(C)c2cc3nc(c(CC(=O)O)c4[nH]c(cc5nc(cc1[nH]2)C(C(=O)OCC)=C5CC)c(C)c4C(=O)O)[C@@H](CCC(=O)O)[C@@H]3C [rhodin g7 7^1-ethyl ester]
value: 3.79

====

# Test system: PANC-1
# measurement.description: MTT cytotoxicity (PDT and dark), PANC-1
# Type: cell-based, Human
# measurement.context: Homo sapiens, light or radiation study, 3 h exposure, 660 nm laser 0.5 J/cm^2, MTT after 24 h

molecular.string: C=Cc1c(C)c2cc3nc(c(CC(=O)O)c4[nH]c(cc5nc(cc1[nH]2)C(C(=O)OCC)=C5CC)c(C)c4C(=O)O)[C@@H](CCC(=O)O)[C@@H]3C
IC50 (µM): 8.4
--
molecular.string: C=Cc1c(C)c2cc3nc(c(CC(=O)O)c4[nH]c(cc5nc(cc1[nH]2)C(C)=C5CC)c(C)c4C(=O)O)[C@@H](CCC(=O)O)[C@@H]3C
IC50 (µM): 17.9

====

# measurement.description: MTT cytotoxicity (PDT and dark), AsPC-1
# Type: cell-based, Human
# measurement.context: human, AsPC-1 cells, no illumination, MTT after 24 h
observable: IC50 (µM)

molecular.string: C=Cc1c(C)c2cc3nc(c(CC(=O)O)c4[nH]c(cc5nc(cc1[nH]2)C(C(=O)OCC)=C5CC)c(C)c4C(=O)O)[C@@H](CCC(=O)O)[C@@H]3C
quantity.unit: µM
value: 395
--
molecular.string: C=Cc1c(C)c2cc3nc(c(CC(=O)O)c4[nH]c(cc5nc(cc1[nH]2)C(C)=C5CC)c(C)c4C(=O)O)[C@@H](CCC(=O)O)[C@@H]3C
quantity.unit: µM
value: 248
